Here, each record is paired with measured pIC50 data.
# Tested On: Peroxisome proliferator-activated receptor gamma (Homo sapiens, UniProt P37231)
# Sequence (P37231 whole entry): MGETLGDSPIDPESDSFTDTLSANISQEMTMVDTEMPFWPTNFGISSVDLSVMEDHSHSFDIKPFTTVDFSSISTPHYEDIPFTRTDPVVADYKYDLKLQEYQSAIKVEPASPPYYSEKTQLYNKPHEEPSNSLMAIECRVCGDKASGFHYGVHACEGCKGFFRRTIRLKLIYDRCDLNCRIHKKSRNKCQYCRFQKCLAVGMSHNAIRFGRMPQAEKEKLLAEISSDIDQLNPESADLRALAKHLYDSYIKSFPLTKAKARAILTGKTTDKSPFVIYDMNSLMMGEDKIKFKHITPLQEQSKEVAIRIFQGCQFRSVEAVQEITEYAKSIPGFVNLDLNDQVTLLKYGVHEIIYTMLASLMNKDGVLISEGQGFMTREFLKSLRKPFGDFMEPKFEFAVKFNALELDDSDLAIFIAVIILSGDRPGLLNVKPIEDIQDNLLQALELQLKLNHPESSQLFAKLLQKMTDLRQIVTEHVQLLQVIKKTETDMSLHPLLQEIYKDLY
# Experimental Details: Displacement of fluormone PPARgamma green from GST-tagged human PPARgamma-LBD after 2 hrs by fluorescence polarization assay
Entry type: numeric. Quantity: pIC50, the -log10 of concentration in molar units.

Solved cases below.
O=C(c1c(Cl)cccc1C(F)(F)F)c1nc(C2=CCC(C(=O)O)CC2)c2ccccn12 (stereo not drawn) = 5.74
O=C(O)c1ccc(-c2nc(C(=O)c3c(Cl)cccc3C3CC3)n3c2CCCC3)c(F)c1 = 5.89
N#Cc1cccc(Cl)c1C(=O)c1nc(-c2ccc(C(=O)O)cc2F)c2n1CCCC2 = 5.11
COc1cccc(C(F)(F)F)c1C(=O)c1nc(-c2ccc(C(=O)O)cc2F)c2n1CCCC2 = 5.04
O=C(O)c1ccc(-c2nc(C(=O)c3c(Cl)cccc3C(F)(F)F)n3ccccc23)c(F)c1 = 6.49
O=C(O)c1ccc(-c2nc(C(=O)c3c(Cl)cccc3C(F)(F)F)n3ccccc23)cc1O = 6.19
O=C(O)c1ccc(-c2nc(C(=O)c3c(F)cccc3Cl)n3c2CCCC3)c(F)c1 = 5.54
O=C(O)c1ccc(-c2nc(C(=O)c3c(Cl)cccc3C3CC3)n3cccnc23)cc1O = 5.47

[in] Looking for the measured pIC50 of O=C(O)c1ccc(-c2nc(C(=O)c3ccccc3C(F)(F)F)n3c2CCCC3)c(F)c1 , can you help?
[out] 5.25

[in] Looking for the measured pIC50 of COc1cccc(Cl)c1C(=O)c1nc(-c2ccc(C(=O)O)cc2F)c2n1CCCC2 , can you help?
[out] 5.26

[in] Looking for the measured pIC50 of O=C(O)c1ccc(-c2nc(C(=O)c3c(Cl)cccc3C(F)(F)F)n3c2CCCC3)cc1 , can you help?
[out] 5.68

[in] Looking for the measured pIC50 of O=C(O)c1ccc(-c2nc(C(=O)c3c(Cl)cccc3C(F)(F)F)n3cccnc23)cc1 , can you help?
[out] 5.38

[in] Looking for the measured pIC50 of O=C(O)c1ccc(-c2nc(C(=O)c3c(Cl)cccc3C(F)(F)F)n3c2CCCC3)c(F)c1 , can you help?
[out] 6.12

[in] Looking for the measured pIC50 of O=C(O)c1ccc(-c2nc(C(=O)c3c(Cl)cccc3Cl)n3c2CCCC3)c(F)c1 , can you help?
[out] 5.96

###

Here, each record is paired with measured pEC50 data.
# Tested On: Nuclear receptor ROR-gamma (Homo sapiens)
# Sequence (P51449 whole entry, the tested form may be a part): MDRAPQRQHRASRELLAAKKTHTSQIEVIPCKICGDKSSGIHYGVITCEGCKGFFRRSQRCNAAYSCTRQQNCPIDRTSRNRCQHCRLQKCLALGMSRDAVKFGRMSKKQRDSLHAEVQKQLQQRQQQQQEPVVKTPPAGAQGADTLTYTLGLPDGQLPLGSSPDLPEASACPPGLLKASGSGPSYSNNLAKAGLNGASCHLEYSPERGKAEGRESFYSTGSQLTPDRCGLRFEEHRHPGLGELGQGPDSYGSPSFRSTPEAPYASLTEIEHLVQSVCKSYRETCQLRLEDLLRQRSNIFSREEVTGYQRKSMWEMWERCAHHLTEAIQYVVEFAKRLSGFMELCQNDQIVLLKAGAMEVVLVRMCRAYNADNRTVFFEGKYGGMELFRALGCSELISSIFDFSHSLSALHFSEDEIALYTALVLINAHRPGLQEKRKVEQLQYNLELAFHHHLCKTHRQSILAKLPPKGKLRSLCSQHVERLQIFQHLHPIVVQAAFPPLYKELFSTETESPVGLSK
# Experimental Details: Inverse agonist activity at N-terminal 6xHis-tagged human RORc ligand binding domain (241 to 486) expressed in bacterial expression system assessed as inhibition of SRC1 co-activator peptide recruitment after 3 hrs by TR-FRET analysis
# Type: functional
Entry type: numeric. Quantity: pEC50, the -log10 of concentration in molar units.

Solved cases below.
O=C(c1c(Cl)cccc1C(F)(F)F)c1nc(C2=CCC(C(=O)O)CC2)c2ccccn12 (stereo unspecified) = 7.00
COc1cccc(C(F)(F)F)c1C(=O)c1nc(-c2ccc(C(=O)O)cc2F)c2n1CCCC2 = 6.17
O=C(O)c1ccc(-c2nc(C(=O)c3ccccc3C(F)(F)F)n3c2CCCC3)c(F)c1 = 6.08

[in] Looking for the measured pEC50 of O=C(O)c1ccc(-c2nc(C(=O)c3c(Cl)cccc3Cl)n3c2CCCC3)c(F)c1 , can you help?
[out] 7.11

[in] Looking for the measured pEC50 of O=C(c1c(Cl)cccc1C(F)(F)F)c1nc(N2CC[C@@H](C(=O)O)[C@H](O)C2)c2ccccn12 (stereo in doubt) , can you help?
[out] 7.01

[in] Looking for the measured pEC50 of O=C(O)c1ccc(-c2nc(C(=O)c3c(Cl)cccc3C(F)(F)F)n3cccnc23)cc1 , can you help?
[out] 7.08

The measured values listed here are drawn from ChEMBL document CHEMBL3596163.
